read-out: Vascular endothelial growth factor receptor 2 (Homo sapiens); test: BSK_4H_VEGFRII: BioMAP Diversity Plus: 4H Assay for Vascular endothelial growth factor receptor 2 (VEGFR2) Biomarker Activity (AID 2283031); conditions: primary human endothelial cells (HUVEC); actives raise or lower the signal
Calls of active or inactive are those of the source. Rule for the calls: active = hit-call score of the fitted dose curve at least 0.9, where 1 is the maximum; inactive = score below 0.9.
Respond only with the outcome that fits, drawn from active, inactive

CCOP(=S)(OCC)OP(=S)(OCC)OCC; inactive
c1ccc2sc(SNC3CCCCC3)nc2c1; inactive
O=C(Cc1ccccc1)OCCc1ccccc1; inactive
OC(Cc1ccccc1Cl)(Cn1cncn1)C1(Cl)CC1 (stereo not drawn); inactive
O=C1C=CC(=O)c2ccccc21; active

Identify the outcome logged in this assay for the compound shown: "COCC(=O)N(c1c(C)cccc1C)[C@H](C)C(=O)OC" inactive

Identify the outcome logged in this assay for the compound shown: "CCOP(=S)(OCC)SCS(=O)(=O)C(C)(C)C" inactive
